protocolText: Inhibition of cAMP-dependent protein kinase (unknown origin) in presence of [p32-gamma]-ATP measured after 10 mins by scintillation counter analysis
Parameters: species or system Homo sapiens
measuredQuantity: pIC50
Give only the number. pIC50 is defined as minus log10 of concentration in molar units.

Input line: GET /values?readout=pIC50&item= `CN(C)CCCn1cc(C2=C(c3c[nH]c4ccccc34)C(=O)NC2=O)c2ccccc21`
Output line: 5.70

---

protocolText: Displacement of [3H]PDBu from PKC in bovine brain assessed as inhibition constant incubated for 70 mins by liquid scintillation counter based dixon plot analysis
Type: tissue-based, Bos taurus
measuredQuantity: Ki (nM)
Please give a number only; it is taken to be in nM.

Input line: GET /values?readout=Ki&item= CN(C)CCCn1cc(C2=C(c3c[nH]c4ccccc34)C(=O)NC2=O)c2ccccc21 [GF-109203]
Output line: 14
